B1: OR4K15 (parent)
chain: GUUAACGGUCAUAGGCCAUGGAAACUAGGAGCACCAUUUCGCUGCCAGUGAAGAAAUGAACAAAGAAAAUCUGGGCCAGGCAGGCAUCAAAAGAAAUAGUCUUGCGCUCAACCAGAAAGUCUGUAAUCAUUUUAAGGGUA

- Variants of: B1
- Test Protocol: self-cleavage, relative activity (ratio to wild type); higher = more cleavage; in vitro, sequencing; the parent is a self-cleaving ribozyme
Consider the following variants; for each one, report its self-cleavage.
Please reply with the number alone, leaving off any unit.

Problem: Which self-cleavage reading was recorded for the variant A69G C101U ?
Result: 0.26

Problem: Let us now turn to U87A U133G
Result: 1.25

Problem: Likewise for A62C A78C ?
Result: 0.31

Problem: Subsequent entry: G41A A111G
Result: 0.02

Problem: Please answer likewise for U3C A98U
Result: 2.88

Problem: Entry U43A A110G please
Result: 0.19

Problem: Then this variant: G20A U102A
Result: 0.58

Problem: Same question, G79U G99A this time
Result: 0.03

Problem: Note, next up: A51U U72A
Result: 0.45

Problem: How about G75A A78U ?
Result: 0.09

Problem: Now this one: A18U U39C
Result: 1.81

Problem: Next variant up: C34U A125G
Result: 0.63

Problem: One more variant: U97A U132C
Result: 0.95

Problem: Try A129G A134G next.
Result: 1.15

Problem: Param item: A69G U87C
Result: 1.66

Problem: Follow-up item: A18G A118G
Result: 1.34

Problem: Now give it for A60G U108A too.
Result: 0.02

Problem: Consider next the variant A64G U120C in the same way.
Result: 1.13

Problem: Same lookup for U103C A129G , please.
Result: 0.56

Problem: Param item: A69G C107U
Result: 0.03

Problem: One more variant: G7U A47G
Result: 1.17

Problem: A63G U122C ?
Result: 1.16
